biological target: human-mouse chimeric molecule DR-IE (human; mouse); test: cell-based or functional assay
Recorded IC50, inhibition of IL-2 secretion of T-Hyb 1 cells values for a group of binders are listed next.

Example entries begin here.
MS-GPC-8-6-19 (Fab form) (Fab, V domains shown) VH: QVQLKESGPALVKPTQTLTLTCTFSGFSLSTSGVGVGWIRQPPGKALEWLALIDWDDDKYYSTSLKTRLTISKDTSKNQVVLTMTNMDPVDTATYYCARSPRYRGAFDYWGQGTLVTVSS VL: DIVLTQPPSVSGAPGQRVTISCSGSESNIGSNYVAWYQQLPGTAPKLLIYDNNQRPSGVPDRFSGSKSGTSASLAITGLQSEDEADYYCQSYDYDHYVFGGGTKLTVLG : 5.3 nM ((Fab)/2)
MS-GPC-8-6-13 (IgG4 form) (antibody, V domains shown, Human IgG4 (constant region EMBL K01316), lambda constant region (EMBL M18645), from CHO-K1 cells; also called 305D3) VH: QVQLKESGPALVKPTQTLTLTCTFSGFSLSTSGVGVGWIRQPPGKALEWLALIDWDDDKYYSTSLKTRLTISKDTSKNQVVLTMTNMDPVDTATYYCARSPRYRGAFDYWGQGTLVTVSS VL: DIVLTQPPSVSGAPGQRVTISCSGSESNIGANYVTWYQQLPGTAPKLLIYDNNQRPSGVPDRFSGSKSGTSASLAITGLQSEDEADYYCQSYDYDHYVFGGGTKLTVLG : 0.42 nM
MS-GPC-8-6-2 (IgG form) (antibody, V domains shown) VH: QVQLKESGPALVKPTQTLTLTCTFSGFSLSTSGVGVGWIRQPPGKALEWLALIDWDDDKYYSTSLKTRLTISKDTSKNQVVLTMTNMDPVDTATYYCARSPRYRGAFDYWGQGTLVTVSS VL: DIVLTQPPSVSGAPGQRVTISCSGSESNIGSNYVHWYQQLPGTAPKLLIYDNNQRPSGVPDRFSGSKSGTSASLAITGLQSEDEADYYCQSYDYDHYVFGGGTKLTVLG : 3.6 nM
MS-GPC-8-27-7 (Fab form) (Fab, V domains shown, Fab: VH-CH1-FLAG-STREP tag II) VH: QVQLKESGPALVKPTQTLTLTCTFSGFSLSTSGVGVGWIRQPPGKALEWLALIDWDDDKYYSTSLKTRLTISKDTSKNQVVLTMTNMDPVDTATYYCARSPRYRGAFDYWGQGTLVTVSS VL: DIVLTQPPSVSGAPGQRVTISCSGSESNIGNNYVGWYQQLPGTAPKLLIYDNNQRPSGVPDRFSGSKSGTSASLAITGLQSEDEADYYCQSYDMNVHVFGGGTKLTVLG : 5.9 nM ((Fab)/2)
MS-GPC-8-27-41 (IgG4 form) (antibody, V domains shown, Human IgG4 (constant region EMBL K01316), lambda constant region (EMBL M18645), from CHO-K1 cells; also called 1D09C3) VH: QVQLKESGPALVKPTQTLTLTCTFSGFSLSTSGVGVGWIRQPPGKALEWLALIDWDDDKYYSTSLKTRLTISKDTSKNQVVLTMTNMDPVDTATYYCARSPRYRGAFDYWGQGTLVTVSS VL: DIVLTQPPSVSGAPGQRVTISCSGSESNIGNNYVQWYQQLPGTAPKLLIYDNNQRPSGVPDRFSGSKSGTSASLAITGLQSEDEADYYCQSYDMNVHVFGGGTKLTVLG : 0.28 nM

Challenge: Field request: IC50, inhibition of IL-2 secretion of T-Hyb 1 cells | item: MS-GPC-8-6-2 (Fab form) (Fab, V domains shown) VH: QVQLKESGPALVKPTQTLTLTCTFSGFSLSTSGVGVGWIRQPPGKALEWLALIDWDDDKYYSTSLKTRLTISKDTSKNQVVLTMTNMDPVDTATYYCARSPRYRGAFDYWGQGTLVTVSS VL: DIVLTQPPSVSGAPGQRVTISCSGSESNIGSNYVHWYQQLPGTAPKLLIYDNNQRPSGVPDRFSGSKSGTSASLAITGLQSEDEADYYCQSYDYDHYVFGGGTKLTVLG
Response given: 4.7 nM ((Fab)/2)

Challenge: Quick check: IC50, inhibition of IL-2 secretion of T-Hyb 1 cells of MS-GPC-8-27-41 (Fab form) (Fab, V domains shown, Fab: VH-CH1-FLAG-STREP tag II; also called 1D09C3) VH: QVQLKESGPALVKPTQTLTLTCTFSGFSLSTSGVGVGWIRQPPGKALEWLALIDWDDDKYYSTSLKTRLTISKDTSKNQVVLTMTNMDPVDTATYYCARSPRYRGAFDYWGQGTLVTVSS VL: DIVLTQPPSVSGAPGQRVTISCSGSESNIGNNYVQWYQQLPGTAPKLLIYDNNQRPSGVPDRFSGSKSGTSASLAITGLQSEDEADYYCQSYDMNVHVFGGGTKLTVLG ?
Response given: 3.6 nM ((Fab)/2)

Challenge: // query IC50, inhibition of IL-2 secretion of T-Hyb 1 cells value for entry MS-GPC-8-6-27 (Fab form) (Fab, V domains shown, Fab: VH-CH1-FLAG-STREP tag II) VH: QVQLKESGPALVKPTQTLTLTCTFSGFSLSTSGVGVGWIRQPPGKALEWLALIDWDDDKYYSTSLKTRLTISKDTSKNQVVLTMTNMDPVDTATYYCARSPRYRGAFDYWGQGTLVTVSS VL: DIVLTQPPSVSGAPGQRVTISCSGSDSNIGANYVTWYQQLPGTAPKLLIYDNNQRPSGVPDRFSGSKSGTSASLAITGLQSEDEADYYCQSYDYDHYVFGGGTKLTVLG
Response given: 3 nM ((Fab)/2)

Value source: patent US20090325290A1
